measurementTarget: KRas wild type (Homo sapiens (Human), UniProt P01116)
Sequence (P01116-2 other isoform, or with tags, fused parts or gaps): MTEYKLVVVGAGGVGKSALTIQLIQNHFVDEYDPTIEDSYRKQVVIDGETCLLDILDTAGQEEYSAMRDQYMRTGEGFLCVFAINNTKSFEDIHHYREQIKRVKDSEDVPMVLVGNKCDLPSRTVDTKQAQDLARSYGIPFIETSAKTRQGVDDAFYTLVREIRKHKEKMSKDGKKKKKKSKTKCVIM
assayExplanation: Ras GTP binding domain inhibition assay (labeled GTP)
assaySetup: 20 μM compound; KRas wild type; read-out: % Inhibition at 20 μM of K-Ras mutant and wild-type protein, KRas wild type
Below: a set of entries, each annotated with reported inhibition at 20 µM.

# molecule, inhibition at 20 µM
records = [
    ("COCCNc1nc(-c2nccn2C)nc2sc(-c3ccccc3)c(-c3ccccc3)c12 [drawing 3535]", "1 to 25%"),
    ("Cn1ccnc1-c1nc(O)c2scc(-c3cccc(Cl)c3)c2n1 [drawing 3617]", "25 to 50%"),
    ("CC(C)COc1ccc(-c2csc3c(O)nc(-c4nccn4C)nc23)cn1 [drawing 3612]", "25 to 50%"),
    ("Cc1ccccc1-c1c(C)sc2c(O)nc(-c3nccn3C)nc12", "25 to 50%"),
    ("COc1ccc(-c2c(C)sc3c(O)nc(-c4nccn4C)nc23)cn1 [drawing 3601]", "1 to 25%"),
    ("CC(C)Oc1cnc(-c2ccccn2)nc1O [drawing 3481]", "25 to 50%"),
    ("COc1cnc(-c2ccccn2)nc1O [drawing 3469]", "25 to 50%"),
    ("COc1cnc(-c2cn(C)cn2)nc1O [drawing 3496]", "25 to 50%"),
    ("CC(C)COc1ccc(-c2csc3c(O)nc(-c4cn(C)cn4)nc23)cn1 [drawing 3605]", "25 to 50%"),
    ("COCCCNc1nc(-c2nccn2C)nc2sc(-c3ccccc3)c(-c3ccccc3)c12 [drawing 3570]", "51 to 75%"),
    ("CC(C)Oc1ccc(-c2csc3c(O)nc(-c4nccn4C)nc23)cc1F [drawing 3609]", "25 to 50%"),
    ("COCCNc1nc(-c2ccncn2)nc2sc(-c3ccccc3)c(-c3ccccc3)c12 [drawing 3574]", "1 to 25%"),
    ("CCOCCOc1nc(-c2nccn2C)nc2sc(-c3ccccc3)c(-c3ccccc3)c12 [drawing 3572]", "25 to 50%"),
    ("Oc1nc(-c2ccccn2)nc2c(-c3cc(CN4CCCC4)ccc3F)csc12 [drawing 3502]", "25 to 50%"),
    ("COCCNc1nc(-c2nccn2C)nc2sc(-c3ccccc3)c(-c3ccccc3Cl)c12 [drawing 3580]", "1 to 25%"),
    ("COCCNc1nc(-c2cn(C)cn2)nc2sc(-c3ccccc3)c(-c3ccccc3)c12 [drawing 3583]", "51 to 75%"),
    ("COCCNc1nc(-c2nccn2C)nc2sc(-c3ccccc3)c(-c3ccncc3)c12 [drawing 3596]", "51 to 75%"),
    ("CCOCCNc1nc(-c2nccn2C)nc2sc(-c3ccccc3)c(-c3ccccc3)c12 [drawing 3575]", "51 to 75%"),
]
